- TARGET_SYSTEM: T1, Amyloid Beta (Aβ) 1-42 (human)
- T1 construct: The same peptide was used in several aggregation states: fibrils, a heterogeneous aggregate mixture, and soluble oligomers or aggregates; also called Aβ42; Aβ 42
- T1 sequence (peptide, as listed by the source): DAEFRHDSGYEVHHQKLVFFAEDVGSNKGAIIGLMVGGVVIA
- MEASUREMENT_NOTES: SPR (BIAcore T200), Aβ1-42 fibrils immobilized on CM5, antibody as analyte, global 1:1 fit
# reported koff; entries follow
Give the quantity in s⁻¹, number only.

Looking up h2931 (antibody, V domains shown, Humanized IgG) VH: EVQLLESGGGLVQPGGSLRLSCAASGFTFSNFGMSWVRQAPGKGLEWVASVRSGSGRTYYSDNVKGRFTISRDNSKNTLYLQMNSLRAEDTAVYYCVRYDHYTGTSDYWGQGTLVTVSS VL: DVVMTQSPLSLPVTLGEPASISCKSSQSLLDYDGKTYLNWLLQKPGQSPQRLIYRVTNRDTGVPDRFSGSGSGTDFTLKISRVEAEDVGVYYCWQGTHFPRSFGQGTKVEIK , I found its koff recorded as 2.05e-05

Looking up h2726 (antibody, V domains shown, Humanized IgG, detected with anti-human IgG) VH: EVQLLESGGGLVQPGGSLRLSCAASGFTFSNYGMSWVRQAPGKGLEWVASIRSGSGRTYYSDNVKGRFTISRDNSKNTLYLQMNSLRAEDTAVYYCVRYDHYSGSSDYWGQGTLVTVSS VL: DVVMTQSPLSLPVTPGEPASISCKSSQSLLDYDGKTYLNWLLQKPGQSPQRLIYKVSNRDSGVPDRFSGSGSGTDFTLKISRVEAEDVGVYYCWQGTHFPRTFGQGTKVEIK , I found its koff recorded as 2.12e-05

Looking up h2731 (antibody, V domains shown, Humanized IgG) VH: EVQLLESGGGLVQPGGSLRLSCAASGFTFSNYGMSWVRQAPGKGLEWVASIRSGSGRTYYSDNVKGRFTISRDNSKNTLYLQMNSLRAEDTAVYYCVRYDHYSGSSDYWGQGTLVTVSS VL: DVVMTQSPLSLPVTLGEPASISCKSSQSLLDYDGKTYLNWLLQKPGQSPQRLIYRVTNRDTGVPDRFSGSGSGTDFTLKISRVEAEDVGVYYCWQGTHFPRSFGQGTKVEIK , I found its koff recorded as 2.62e-05

Looking up h2831 (antibody, V domains shown, Humanized IgG) VH: EVQLLESGGGLVQPGGSLRLSCAASGFTFSNFGMSWVRQAPGKGLEWVASVRSGSGRTYYSDNVKGRFTISRDNSKNTLYLQMNSLRAEDTAVYYCVRYDHYSGTSDYWGQGTLVTVSS VL: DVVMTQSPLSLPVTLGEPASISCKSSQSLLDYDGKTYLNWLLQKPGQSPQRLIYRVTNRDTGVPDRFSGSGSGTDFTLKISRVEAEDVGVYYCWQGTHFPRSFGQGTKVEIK , I found its koff recorded as 2.94e-05
